Source of measurements: patent US8268779B2

# MEASURED_ON: hGLP-1R (Homo sapiens, UniProt P43220)
# ASSAY_COMMENT: EC50 (hGLP-1R), nM | "+DPP-IV"
Non-standard residues stand in square brackets, D forms with d. No end group written: not given here. C3 = cysteine residue PEGylated via the side-chain thiol with branched methoxyPEG [(mPEG)2] of 40 kDa (Cys(mPEG)2 40 kDa); (mPEG)2 40 kDa = C3 = Cys(mPEG)2 40 kDa, cysteine PEGylated via side-chain thiol with branched mPEG of 40 kDa; Met(O) = CS(=O)CC[C@H](N)C(=O)O; Aib = CC(C)(N)C(=O)O
Hi! Could you tag entries with EC50 below 40 nM as class 1, and those at or above as class 0? Much appreciated.

{"SUBSTANCE": "H2αQGTFTSDYSKYLDSRRAQDFVQWLmNTKRNRNNIAC3-CONH2 (XXQGTFTSDYSKYLDSRRAQDFVQWLXNTKRNRNNIAX; Aib2, D-Met, C-terminal amide, conjugated Cys; Synthetic peptide based on the human oxyntomodulin sequence) [OXM113]", "ASSIGNED_LABEL": "class 0"}
{"SUBSTANCE": "HαQGTFTSDYSKYLDSRRAQDFVC3WLmNTKRNRNNIA-CONH2 [OXM107]", "ASSIGNED_LABEL": "class 0"}
{"SUBSTANCE": "HαQGTFTSDYSKYLDSRRAC3DFVQWLMNTKRNRNNIA-CONH2 (H[Aib]QGTFTSDYSKYLDSRRA[C3]DFVQWLMNTKRNRNNIA-NH2) [OXM103]", "ASSIGNED_LABEL": "class 1"}
{"SUBSTANCE": "HαQGTFTSDYSKYLDSRRAQDC4VQWLmNTKRNRNNIA-CONH2 [OXM127]", "ASSIGNED_LABEL": "class 0"}

Exercise: Strictly below 40 nM in EC50? HαQGTFTSDYSKYLDSRRAQDFVQWLMNTK-CONH2 (HXQGTFTSDYSKYLDSRRAQDFVQWLMNTK; Aib2, C-terminal amide; Synthetic peptide based on the human oxyntomodulin sequence) [OXM130]
Solution: class 1

Exercise: Problem: For the substance HαDGTFTSDYSKYLDSRRAQDFVQWLmNTKRNRNNIAC4-CONH2 [OXM118] , is EC50 under 40 nM?
Solution: class 1

Exercise: Determine whether this substance shows EC50 lower than 40 nM (ties excluded): HαQGTFTSDYSKYLDSRRAQC3FVQWLMNTKRNRNNIA-CONH2 (HXQGTFTSDYSKYLDSRRAQXFVQWLMNTKRNRNNIA; Aib2, C-terminal amide, conjugated Cys; Synthetic peptide based on the human oxyntomodulin sequence) [OXM105]
Solution: class 1

Exercise: Decide: EC50 of HαQGTFTSDYSKYLDSRRAQDFVQWLMC3TKRNRNNIA-CONH2 (HXQGTFTSDYSKYLDSRRAQDFVQWLMXTKRNRNNIA; Aib2, C-terminal amide, conjugated Cys; Synthetic peptide based on the human oxyntomodulin sequence) [OXM109] strictly below 40 nM?
Solution: class 1

Exercise: Would you kindly verify if EC50 of HαDGTFTSDYSKYLDSRRAQDFVQWLmNTKRNRNNIAC3-CONH2 (H[Aib]DGTFTSDYSKYLDSRRAQDFVQWL[Met(O)]NTKRNRNNIAC((mPEG)2 40 kDa)-NH2) [OXM117, (mPEG)240 kDa conjugate made with MPEG2-MAL-40K (NEKTAR)] is strictly less than 40 nM?
Solution: class 0

Exercise: Identify whether the substance HαDGTFTSDYSKYLDSRRAC3DFVQWLmNTKRNRNNIA-CONH2 [OXM125] records EC50 below 40 nM.
Solution: class 0
